The measured values listed here are drawn from ChEMBL document CHEMBL1149782.

- Test system: Helminthosporium
- Assay Info: Antifungal activity against Helminthosporium species at 500 ppm after 96 hrs
- Assay type: functional
Endpoint: inhibition at 500 ppm (%)
Answers are plain numbers, in %.

Examples with their reported inhibition at 500 ppm follow.
Molecule	Unit	Value Measured
COc1ccc(-c2nn(-c3ccccc3)cc2-c2oc3ccccc3c(=O)c2O)cc1	%	59.7
O=c1c(O)c(-c2cn(-c3ccccc3)nc2-c2ccccc2)oc2ccccc12	%	50.5
O=c1c(O)c(-c2cn(-c3ccccc3)nc2-c2ccc(Cl)cc2)oc2ccccc12	%	1.19
O=c1c(O)c(-c2cn(-c3ccccc3)nc2-c2ccc(Br)cc2)oc2ccccc12	%	39.2
C[C@@H]1C[C@@H]([C@H](O)CC2CC(=O)NC(=O)C2)C(=O)[C@@H](C)C1 [CYCLOHEXIMIDE]	%	41.5
O=c1c(O)c(-c2cn(-c3ccccc3)nc2-c2ccc(F)cc2)oc2ccccc12	%	28.7
Cc1ccc(-c2nn(-c3ccccc3)cc2-c2oc3ccccc3c(=O)c2O)cc1	%	73.8

Name the reported inhibition at 500 ppm value associated with the molecule "O=c1c(O)c(-c2cn(-c3ccccc3)nc2-c2ccc([N+](=O)[O-])cc2)oc2ccccc12"
1.31

---

Kindly supply the reported inhibition at 1000 ppm values for the records listed here.
- Tested on: Helminthosporium
- Assay Info: Antifungal activity against Helminthosporium species at 1000 ppm after 96 hrs
- Assay type: functional

Examples with their reported inhibition at 1000 ppm follow.
Molecule	Value Measured
Cc1ccc(-c2nn(-c3ccccc3)cc2-c2oc3ccccc3c(=O)c2O)cc1	76.1%
O=c1c(O)c(-c2cn(-c3ccccc3)nc2-c2ccccc2)oc2ccccc12	71.2%
C[C@@H]1C[C@@H]([C@H](O)CC2CC(=O)NC(=O)C2)C(=O)[C@@H](C)C1 [CYCLOHEXIMIDE]	50%

# return inhibition at 1000 ppm for each item in the list
1. O=c1c(O)c(-c2cn(-c3ccccc3)nc2-c2ccc(F)cc2)oc2ccccc12
2. O=c1c(O)c(-c2cn(-c3ccccc3)nc2-c2ccc([N+](=O)[O-])cc2)oc2ccccc12

["58.6%", "14.4%"]

---

Kindly supply the reported inhibition at 100 ppm values for the records listed here.
- Test system: Helminthosporium
- Assay Info: Antifungal activity against Helminthosporium species at 100 ppm after 96 hrs
- Assay type: functional
Numbers only, in %.

Examples with their reported inhibition at 100 ppm follow.
Molecule	inhibition at 100 ppm (%)
Cc1ccc(-c2nn(-c3ccccc3)cc2-c2oc3ccccc3c(=O)c2O)cc1	73.8
O=c1c(O)c(-c2cn(-c3ccccc3)nc2-c2ccc([N+](=O)[O-])cc2)oc2ccccc12	1.31
O=c1c(O)c(-c2cn(-c3ccccc3)nc2-c2ccc(F)cc2)oc2ccccc12	12.3
O=c1c(O)c(-c2cn(-c3ccccc3)nc2-c2ccc(Br)cc2)oc2ccccc12	39
COc1ccc(-c2nn(-c3ccccc3)cc2-c2oc3ccccc3c(=O)c2O)cc1	59.7
O=c1c(O)c(-c2cn(-c3ccccc3)nc2-c2ccccc2)oc2ccccc12	31

# return inhibition at 100 ppm for each item in the list
1. C[C@@H]1C[C@@H]([C@H](O)CC2CC(=O)NC(=O)C2)C(=O)[C@@H](C)C1 [CYCLOHEXIMIDE]
2. O=c1c(O)c(-c2cn(-c3ccccc3)nc2-c2ccc(Cl)cc2)oc2ccccc12

38.5
0
